# target.entity: human CC-chemokine receptor 4 (CCR4); CHO-CCR4 membranes (Homo sapiens)
# Construct: membranes
# Sequence (P51679 whole entry): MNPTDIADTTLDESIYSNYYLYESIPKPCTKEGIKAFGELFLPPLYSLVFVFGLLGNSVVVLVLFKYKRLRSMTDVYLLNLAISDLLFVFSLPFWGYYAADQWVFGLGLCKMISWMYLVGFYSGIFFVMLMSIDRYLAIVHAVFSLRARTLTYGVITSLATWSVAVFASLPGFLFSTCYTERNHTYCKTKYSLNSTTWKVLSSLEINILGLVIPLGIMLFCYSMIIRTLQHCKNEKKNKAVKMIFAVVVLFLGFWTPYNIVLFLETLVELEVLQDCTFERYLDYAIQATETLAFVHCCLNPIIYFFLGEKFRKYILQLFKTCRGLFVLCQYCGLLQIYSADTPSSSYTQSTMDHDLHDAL
# assay.info: […]CCL17 displacement, scintillation proximity assay, CHO-CCR4 membranes
# Format: binding
# test.context: read-out: [^125I]CCL17 / pKi (converted)
Mark 1 only for Ki values smaller than 6 nM; exact matches and larger values are -1.

Data request: Problem: For the molecule COc1nc(Br)cnc1NS(=O)(=O)c1ccc(Cl)s1 , is Ki under 6 nM?
Data returned: -1

Data request: Does the reported Ki of COc1cc2nc(N3CCC(N(C)C(=O)[C@H]4CCCN4)CC3)nc(Nc3ccc(Cl)cc3F)c2cc1OC stay below 6 nM?
Data returned: 1

Data request: API: query returns whether the molecule falls strictly under 6 nM in Ki. Query: c1ccc2c(Nc3nc(CN(CC4CCCCC4)CC4CCCCC4)cs3)cccc2c1
Data returned: -1

Data request: Problem: For the molecule O=C([C@H]1CCCCN1)N1CCN(c2nccc(NCc3ccc(Cl)cc3Cl)n2)CC1 , is Ki under 6 nM?
Data returned: 1

Data request: Here's an entry: COc1cccc2c1c(NS(=O)(=O)c1ccc(Cl)s1)nn2Cc1cccc(CNC(=O)OC(C)(C)C)c1 . Is its Ki below 6 nM?
Data returned: -1
